These measurements were taken from ChEMBL document CHEMBL1201862.

Give measured GI50 for each item. Keep answers brief.
System: A549
TEST SUMMARY: NCI tumour cell line growth inhibition, 48 h
Calls of active or inactive are those of the source. Rule as the data show it: active = GI50 up to about 1.1 µM and inactive = higher.

Incoming: Entry O=C(Nc1sccc1S(=O)(=O)c1ccc(Cl)cc1)c1ccc(Cl)cc1 : reported GI50 = ?
Outgoing: 94.8 µM (inactive)

Incoming: Likewise for O=C(OC1=CCN(Br)C1=O)C1=C(O)C(=O)N(Br)C1 ?
Outgoing: 42.9 µM (inactive)

Incoming: Likewise for CC(=O)OC1CC2c3cccc4c3C(CC2N(C)C1=O)CN4C(=O)c1ccccc1 (stereo not given) ?
Outgoing: 17.5 µM (inactive)

Incoming: Likewise for COc1cccc(C2SCC(=O)N2c2ccc(-n3c(-c4ccccc4)nc4ccccc4c3=O)cc2)c1OC (stereo not given) ?
Outgoing: > 100 µM (inactive)

Incoming: Likewise for Cc1n[nH]c(=O)n1/N=C\c1ccccc1 ?
Outgoing: > 100 µM (inactive)

Incoming: Likewise for CC1=C(C(=O)Nc2cccc(Cl)c2)C(c2ccc([N+](=O)[O-])cc2)C(C(=O)Nc2cccc(Cl)c2)=C(C)N1 ?
Outgoing: 28.9 µM (inactive)

Incoming: Likewise for O=C(Nc1ccc(Cl)cc1C(=O)O)c1ccc([N+](=O)[O-])cc1 ?
Outgoing: 33.7 µM (inactive)

Incoming: Likewise for O=C1C(Br)=C(Br)C(=O)c2c(O)ccc(O)c21 ?
Outgoing: 19.3 µM (inactive)

Incoming: Likewise for Ic1cccc(/C=C/CN2CCN(CCOC(c3ccccc3)c3ccccc3)CC2)c1 ?
Outgoing: 17.5 µM (inactive)

Incoming: Likewise for CC(C)N(C(=O)C12C3C4C1C1C2C3C41C#N)C(C)C (stereo not given) ?
Outgoing: > 100 µM (inactive)

----------
System: SNB-19
TEST SUMMARY: NCI tumour cell line growth inhibition, 48 h
Activity calls are given as the source filed them. Cut-off read from the data, not from the text of the source: active = GI50 up to about 1.1 µM and inactive = higher.
EXPERIMENTAL READOUT: GI50

Incoming: Entry CC1(C)C[C@H]2C=C(C=O)[C@]34C[C@]3(C(=O)OC4O)[C@H]2C1 (stereo partly specified) : reported GI50 = ?
Outgoing: 11.4 µM (inactive)

Incoming: Likewise for COc1ccc(C(C)c2cc3c(cc2OC)OCO3)cc1 (stereo unspecified) ?
Outgoing: 2.61 µM (inactive)

Incoming: Likewise for C=CCCCCn1c2ccccc2c2c(C)c3cnccc3c(C)c21 ?
Outgoing: 15.3 µM (inactive)

Incoming: Likewise for COc1cccc(C2CC(C)=Nc3c(ccc4c3C(=O)c3ccccc3C4=O)N2)c1O (stereo unspecified) ?
Outgoing: > 100 µM (inactive)

Incoming: Likewise for CCCCC1CC(c2cccc([N+](=O)[O-])c2)=NO1 (stereo unspecified) ?
Outgoing: > 100 µM (inactive)

Incoming: Likewise for COc1ccc(C2(Cl)C(Cl)(C(F)(F)F)C2(Cl)C(F)(F)F)cc1 (stereo unspecified) ?
Outgoing: 15.7 µM (inactive)

----------
Tested on: NCI-H522
TEST SUMMARY: NCI tumour cell line growth inhibition, 48 h
Activity calls are given as the source filed them. Cut-off read from the data, not from the text of the source: active = GI50 up to about 1.1 µM and inactive = higher.
Pick from true (1) = active, false (0) = inactive when you respond.

Incoming: Can you look up the reported call for S=C(NCCc1ccccn1)N/N=C(\c1ccccc1)c1ccccn1 for me?
Outgoing: true (1)

Incoming: Likewise for Nc1c(/N=N/c2ccc(-c3ccc(/N=N/c4c(O)ccc5cc(S(=O)(=O)O)cc(S(=O)(=O)O)c45)cc3)cc2)c(S(=O)(=O)O)cc2cc(S(=O)(=O)O)c(/N=N/c3ccccc3)c(O)c12 ?
Outgoing: false (0)

Incoming: Likewise for CC(=O)OCc1cc(CCC(=O)NCCNc2c3ccccc3nc3ccccc23)cc(COC(C)=O)c1O[Si](C)(C)C(C)(C)C ?
Outgoing: false (0)

Incoming: Likewise for CC(=O)/N=C1\NC(=O)/C(=C/c2ccc(Cl)cc2Cl)N1C ?
Outgoing: false (0)

Incoming: Likewise for O=C1c2ccc(O)cc2C(=O)c2ccc(O)cc21 ?
Outgoing: false (0)

Incoming: Likewise for C1CC2=C(C1)C1=S(S2)SC2=C1CCC2 ?
Outgoing: false (0)

Incoming: Likewise for CN(C)c1c([O-])c(=[N+](C)C)c1=O ?
Outgoing: false (0)

Incoming: Likewise for CN1CCc2c(sc3nc(S)nc(S)c23)C1 ?
Outgoing: false (0)

Incoming: Likewise for CC1(C)OC2C(O)C(CO)OC2(C(F)F)O1 (stereo not drawn) ?
Outgoing: false (0)

Incoming: Likewise for CS(C)(=O)=N/C=C\C(=O)C(Cl)(Cl)Cl ?
Outgoing: false (0)

Incoming: Likewise for COC(=O)C(C(=O)C(=O)Nc1c(Cl)cc([N+](=O)[O-])cc1Cl)c1nc2cc(C)c(C)cc2nc1O (stereo not drawn) ?
Outgoing: false (0)

Incoming: Likewise for CN(C)c1ccc(C(=N/N=C2\C(=O)Nc3ccccc32)c2ccc(N(C)C)cc2)cc1 ?
Outgoing: true (1)

Incoming: Likewise for Cc1[nH]c(/C=C2\C(=O)Nc3ccccc32)c(C)c1CCC(=O)O [ORANTINIB] ?
Outgoing: false (0)
